A collection of molecules and their measured inhibition at 100 ug/ml
Experiment: Cytotoxicity against human WI38 cells assessed as inhibition of cell growth at 100 ug/ml by MTT assay
Format: cell-based, WI-38
Numbers only; they are read as %.

compound_structure	inhibition at 100 ug/ml / %
CC(=O)O[C@@H]1CC[C@@]2(C)[C@@H](C1)C[C@@H](OC(C)=O)[C@@H]1[C@@H]2CC[C@]2(C)[C@@H]([C@H](C)CCC(=O)O)CC[C@@H]12	98

What value of measured inhibition at 100 ug/ml is listed for `CC(=O)O[C@@H]1CC[C@@]2(C)[C@H](CC[C@@H]3[C@@H]2C[C@H](OC(C)=O)[C@]2(C)[C@@H]([C@H](C)CCC(=O)O)CC[C@@H]32)C1` ?
98

What do we get for `C[C@H](CCC(=O)O)[C@H]1CC[C@H]2[C@@H]3[C@H](O)C[C@@H]4C[C@H](O)CC[C@]4(C)[C@H]3CC[C@]12C` ?
94

What do we get for `CC(=O)O[C@@H]1CC[C@@]2(C)[C@@H](C1)C[C@@H](OC(C)=O)[C@@H]1[C@@H]2C[C@H](OC(C)=O)[C@]2(C)[C@@H]([C@H](C)CCC(=O)O)CC[C@@H]12` ?
29

What do we get for `C[C@H](CCC(=O)O)[C@H]1CC[C@H]2[C@@H]3CC[C@@H]4C[C@H](O)CC[C@]4(C)[C@H]3C[C@H](O)[C@]12C` ?
50

What do we get for `CC(=O)O[C@@H]1CC[C@@]2(C)[C@@H](C1)[C@@H](OC(C)=O)[C@@H](OC(C)=O)[C@@H]1[C@@H]2CC[C@]2(C)[C@@H]([C@H](C)CCC(=O)O)CC[C@@H]12` ?
96

What do we get for `C[C@H](CCC(=O)O)[C@H]1CC[C@H]2[C@@H]3CC[C@@H]4C[C@H](O)CC[C@]4(C)[C@H]3CC[C@]12C` ?
98

What do we get for `C[C@H](CCC(=O)O)[C@H]1CC[C@H]2[C@@H]3C[C@H](O)[C@@H]4C[C@H](O)CC[C@]4(C)[C@H]3CC[C@]12C` ?
22

What do we get for `CC(=O)O[C@@H]1CC[C@]2(C)[C@H]3CC[C@]4(C)[C@@H]([C@H](C)CCC(=O)O)CC[C@H]4[C@@H]3C[C@H](OC(C)=O)[C@@H]2C1` ?
98

What do we get for `CC(=O)O[C@@H]1CC[C@@]2(C)[C@H](CC[C@@H]3[C@@H]2CC[C@]2(C)[C@@H]([C@H](C)CCC(=O)O)CC[C@@H]32)C1` ?
98

###

A collection of molecules and their measured selectivity ratio
Assay: in vitro
Conditions: human, WI38 cells
Description: Selectivity index, ratio of IC50 against human WI38 cells to IC50 for Trypanosoma brucei brucei Lister 427 bloodstream forms
No unit in the answer, only the number.

compound_structure	selectivity ratio
C=C[C@H]1CN2CC[C@H]1C[C@H]2[C@H](O)c1cc(CC[C@@H](C)[C@H]2CC[C@H]3[C@@H]4C[C@H](O)[C@@H]5C[C@H](O)CC[C@]5(C)[C@H]4CC[C@]23C)nc2ccc(OC)cc12	7
C=C[C@H]1CN2CC[C@H]1C[C@@H]2[C@@H](O)c1cc(CC[C@@H](C)[C@H]2CC[C@H]3[C@@H]4CC[C@@H]5C[C@H](OC(C)=O)CC[C@]5(C)[C@H]4C[C@H](OC(C)=O)[C@]23C)nc2ccccc12	3.2
C=C[C@H]1CN2CC[C@H]1C[C@H]2[C@H](O)c1cc(CC[C@@H](C)[C@H]2CC[C@H]3[C@@H]4C[C@H](OC(C)=O)[C@@H]5C[C@H](OC(C)=O)CC[C@]5(C)[C@H]4CC[C@]23C)nc2ccccc12	3.5

What value of measured selectivity ratio is listed for `C=C[C@H]1CN2CC[C@H]1C[C@@H]2[C@@H](O)c1cc(CC[C@@H](C)[C@H]2CC[C@H]3[C@@H]4CC[C@@H]5C[C@H](O)CC[C@]5(C)[C@H]4C[C@H](O)[C@]23C)nc2ccc(OC)cc12` ?
7.1

###

Test system: Trypanosoma brucei brucei
Test: Potency index, ratio of IC50 for QND to IC50 for test compound against Trypanosoma brucei brucei Lister 427 bloodstream forms by microtiter plate based assay
Type: functional
readout: Ratio IC50
No unit in the answer, only the number.

What value of measured Ratio IC50 is listed for `C=C[C@H]1CN2CC[C@H]1C[C@@H]2[C@@H](O)c1cc(CC[C@@H](C)[C@H]2CC[C@H]3[C@@H]4CC[C@@H]5C[C@H](O)CC[C@]5(C)[C@H]4C[C@H](O)[C@]23C)nc2ccc(OC)cc12` ?
42.7

What do we get for `C=C[C@H]1CN2CC[C@H]1C[C@@H]2[C@@H](O)c1cc(CC[C@@H](C)[C@H]2CC[C@H]3[C@@H]4[C@H](O)[C@H](O)[C@@H]5C[C@H](O)CC[C@]5(C)[C@H]4CC[C@]23C)nc2ccc(OC)cc12` ?
33.9

What do we get for `C=C[C@H]1CN2CC[C@H]1C[C@@H]2[C@@H](O)c1cc(CC[C@@H](C)[C@H]2CC[C@H]3[C@@H]4[C@H](O)C[C@@H]5C[C@H](O)CC[C@]5(C)[C@H]4C[C@H](O)[C@]23C)nc2ccc(OC)cc12` ?
21.6

What do we get for `C=C[C@H]1CN2CC[C@H]1C[C@@H]2[C@@H](O)c1cc(CC[C@@H](C)[C@H]2CC[C@H]3[C@@H]4C[C@H](OC(C)=O)[C@@H]5C[C@H](OC(C)=O)CC[C@]5(C)[C@H]4CC[C@]23C)nc2ccc(OC)cc12` ?
17.7

What do we get for `C=C[C@H]1CN2CC[C@H]1C[C@@H]2[C@@H](O)c1cc(CC[C@@H](C)[C@H]2CC[C@H]3[C@@H]4[C@H](OC(C)=O)C[C@@H]5C[C@H](OC(C)=O)CC[C@]5(C)[C@H]4C[C@H](OC(C)=O)[C@]23C)nc2ccc(OC)cc12` ?
48.8

What do we get for `C=C[C@H]1CN2CC[C@H]1C[C@@H]2[C@@H](O)c1cc(CC[C@@H](C)[C@H]2CC[C@H]3[C@@H]4C[C@H](O)[C@@H]5C[C@H](O)CC[C@]5(C)[C@H]4CC[C@]23C)nc2ccc(OC)cc12` ?
29.2

###

A collection of molecules and their measured IC50
Assay: Cytotoxicity against human WI38 cells by MTT assay
Type: cell-based, WI-38
Settings: Homo sapiens, WI-38; read-out: IC50
Numbers only; they are read as µM.

Check out these entries, answers already filled in.
compound_structure	result_units	IC50
C=C[C@H]1CN2CC[C@H]1C[C@H]2[C@H](O)c1cc(CC[C@@H](C)[C@H]2CC[C@H]3[C@@H]4CC[C@@H]5C[C@H](OC(C)=O)CC[C@]5(C)[C@H]4C[C@H](OC(C)=O)[C@]23C)nc2ccc(OC)cc12	µM	4.41
C=C[C@H]1CN2CC[C@H]1C[C@@H]2[C@@H](O)c1cc(CC[C@@H](C)[C@H]2CC[C@H]3[C@@H]4[C@H](O)[C@H](O)[C@@H]5C[C@H](O)CC[C@]5(C)[C@H]4CC[C@]23C)nc2ccc(OC)cc12	µM	4.75
C=C[C@H]1CN2CC[C@H]1C[C@@H]2[C@@H](O)c1cc(CC[C@@H](C)[C@H]2CC[C@H]3[C@@H]4[C@H](O)C[C@@H]5C[C@H](O)CC[C@]5(C)[C@H]4C[C@H](O)[C@]23C)nc2ccc(OC)cc12	µM	11.8
C=C[C@H]1CN2CC[C@H]1C[C@@H]2[C@@H](O)c1cc(CC[C@@H](C)[C@H]2CC[C@H]3[C@@H]4[C@H](OC(C)=O)[C@H](OC(C)=O)[C@@H]5C[C@H](OC(C)=O)CC[C@]5(C)[C@H]4CC[C@]23C)nc2ccc(OC)cc12	µM	3.29
C=C[C@H]1CN2CC[C@H]1C[C@@H]2[C@@H](O)c1cc(CC[C@@H](C)[C@H]2CC[C@H]3[C@@H]4CC[C@@H]5C[C@H](OC(C)=O)CC[C@]5(C)[C@H]4C[C@H](OC(C)=O)[C@]23C)nc2ccc(OC)cc12	µM	5.33
CC(=O)O[C@@H]1CC[C@@]2(C)[C@@H](C1)C[C@@H](OC(C)=O)[C@@H]1[C@@H]2CC[C@]2(C)[C@@H]([C@H](C)CCC(=O)O)CC[C@@H]12	µM	16.8

What value of measured IC50 is listed for `C=C[C@H]1CN2CC[C@H]1C[C@H]2[C@H](O)c1cc(CC[C@@H](C)[C@H]2CC[C@H]3[C@@H]4CC[C@@H]5C[C@H](O)CC[C@]5(C)[C@H]4C[C@H](O)[C@]23C)nc2ccc(OC)cc12` ?
5.2

###

Assay: Cytotoxicity against human WI38 cells assessed as inhibition of cell growth at 20 ug/ml by MTT assay
Assay type: cell-based, WI-38
Kindly return true if reported inhibition at 20 ug/ml is no lower than 10%; return false if it is lower.

compound_structure	category
C[C@H](CCC(=O)O)[C@H]1CC[C@H]2[C@@H]3[C@H](O)[C@H](O)[C@@H]4C[C@H](O)CC[C@]4(C)[C@H]3CC[C@]12C	true

Does the reported inhibition at 20 ug/ml for `CC(=O)O[C@@H]1CC[C@@]2(C)[C@@H](C1)C[C@@H](OC(C)=O)[C@@H]1[C@@H]2C[C@H](OC(C)=O)[C@]2(C)[C@@H]([C@H](C)CCC(=O)O)CC[C@@H]12` fall at or above the 10% mark?
true

What do we get for `C[C@H](CCC(=O)O)[C@H]1CC[C@H]2[C@@H]3CC[C@@H]4C[C@H](O)CC[C@]4(C)[C@H]3CC[C@]12C` ?
true

What do we get for `CC(=O)O[C@@H]1CC[C@@]2(C)[C@@H](C1)C[C@@H](OC(C)=O)[C@@H]1[C@@H]2CC[C@]2(C)[C@@H]([C@H](C)CCC(=O)O)CC[C@@H]12` ?
true

What do we get for `C[C@H](CCC(=O)O)[C@H]1CC[C@H]2[C@@H]3[C@H](O)C[C@@H]4C[C@H](O)CC[C@]4(C)[C@H]3C[C@H](O)[C@]12C` ?
false

What do we get for `CC(=O)O[C@@H]1CC[C@@]2(C)[C@@H](C1)[C@@H](OC(C)=O)[C@@H](OC(C)=O)[C@@H]1[C@@H]2CC[C@]2(C)[C@@H]([C@H](C)CCC(=O)O)CC[C@@H]12` ?
false

What do we get for `C[C@H](CCC(=O)O)[C@H]1CC[C@H]2[C@@H]3C[C@H](O)[C@@H]4C[C@H](O)CC[C@]4(C)[C@H]3CC[C@]12C` ?
true
